Test system: Vero E6
Assay details: cell viability relative to DMSO; higher = less toxic
Stated conditions: 72 h; 100 nM
compounds and their reported cell viability
Outcome measure: cell viability (%)

compound="CC(C)OC(=O)OCOP(=O)(CO[C@H](C)Cn1cnc2c(N)ncnc21)OCOC(=O)OC(C)C [tenofovir-disoproxil]" result_number=96
compound="COc1ccc(/C=C\\c2cc(OC)c(OC)c(OC)c2)cc1O [combretastatin-A-4]" result_number=22.5
compound="O=c1cc(-c2ccccc2)oc2cc(O)c(O)c(O)c12 [baicalein]" result_number=93.1
compound="Cc1ccc(-c2csc(NC(=O)c3ccccc3)n2)c(C)c1 [INH1]" result_number=98.4

* * *

Known cell viability of a selection of compounds
System: HepG2
Assay details: cell viability relative to DMSO; higher = less toxic
Stated conditions: 72 h; 1 nM
Outcome measure: cell viability (%)

compound=O=c1cc(-c2ccccc2)oc2cc(O)c(O)c(O)c12 tested_system=HepG2 result_number=92.1
compound="CCCCCCCCCCCCCCCC(=O)OC[C@H](COP(=O)([O-])OCC[N+](C)(C)C)OC(=O)CCCCCCCCCCCCCCC [colfosceril-palmitate]" tested_system=HepG2 result_number=97.5
compound=O=C(Nc1ccc(Cl)cc1)Nc1ccc(Cl)c(Cl)c1 tested_system=HepG2 result_number=90
compound=Cc1c(C(=O)NC2CCCCC2)sc2nc3ccc(N)cc3n12 tested_system=HepG2 result_number=94.1
compound=Cc1ccc2cc(-c3c(C)ccc(C(=O)c4c(-c5ccccc5)n(C)n(-c5ccccc5)c4=O)c3N)ccc2n1 tested_system=HepG2 result_number=96.5
compound="N#CC(c1ccc(Cl)cc1)c1c(Cl)cc(-n2ncc(=O)[nH]c2=O)cc1Cl (stereo not given)" tested_system=HepG2 result_number=101
compound=COc1ccc(Cn2ccc3ccc(C(=O)NO)cc32)cc1 tested_system=HepG2 result_number=105
compound="COc1ccccc1OCC(O)CNC(C)C (stereo not given)" tested_system=HepG2 result_number=98.3
compound=C[C@]1(c2nc3c(C(N)=O)cccc3[nH]2)CCCN1 tested_system=HepG2 result_number=105
compound=CCc1cccc(N(C)C(=N)Nc2cccc3ccccc23)c1 tested_system=HepG2 result_number=97.6

* * *

Tested on: U2OS
Assay details: cell viability relative to DMSO; higher = less toxic
Stated conditions: 72 h; 100 nM
compounds and their reported cell viability
Outcome measure: cell viability (%)

compound=CC(=O)N1CCN(CCOc2ccc(C3CCN(C4=Nn5c(nnc5C(F)(F)F)CC4)CC3)cc2)CC1 result_number=99.4
compound=COc1ccc(C(=O)C2CCN(CC(=O)N(Cc3nc4c(c(=O)[nH]3)COCC4)CC3CC3)CC2)cc1 result_number=91.5
compound=CC(C)(N)Cc1ccccc1 result_number=100
compound=C#C[C@]1(O)CC[C@H]2[C@@H]3CCc4cc(OC)ccc4[C@H]3CC[C@@]21C result_number=96.7
compound=CCCc1cc(C)[nH]c(=O)c1CNC(=O)c1cc(-c2ccc(N3CCN(C(C)C)CC3)nc2)cc2c1cnn2C(C)C result_number=99.3
compound=CC(C)N(CCC(=O)c1ccc2ccccc2c1)Cc1ccccc1 result_number=93.5
compound=CC(C)C(=O)OC[C@H]1O[C@@H](n2ccc(N)nc2=O)[C@](C)(F)[C@@H]1OC(=O)C(C)C result_number=98.6
compound="NC(=O)c1ccc([N+](=O)[O-])cc1Cl [aklomide]" result_number=99.4
compound=O=C1C(=O)N(Cc2ccc(Cl)c(Cl)c2)c2ccccc21 result_number=94
compound=Ic1cc(-c2ccccc2)ncn1 result_number=102
compound=CC(=O)NC[C@H]1CN(c2ccc(-c3ccc(CNCc4cnn[nH]4)cc3)c(F)c2)C(=O)O1 result_number=99.7

* * *

Tested on: U2OS
Assay details: cell viability relative to DMSO; higher = less toxic
Stated conditions: 72 h; 1 nM
# maps each entry to its cell viability
Outcome measure: cell viability (%)

compound="Cc1nc(-c2cn3c(n2)-c2ccc(-c4cnn(C(C)(C)C(N)=O)c4)cc2OCC3)n(C(C)C)n1 [taselisib]" result_number=102
compound="COc1ccc2cc(-c3cc(-c4cc(Cl)cc(Cl)c4)nn3[C@@H](C)c3ccc(C(=O)NCCC(=O)O)cc3)ccc2c1 [MK-0893]" result_number=95.8
compound="CCOC(=O)Nc1ccc2c(c1)N(C(=O)CN(CC)CC)c1ccccc1CC2 [CINPA-1]" result_number=105
compound="OC[C@@H](O)[C@@H](O)[C@H](O)[C@@H](O)CO [sorbitol]" result_number=104

* * *

Readings of cell viability for the listed molecules
System: HepG2
Assay details: cell viability relative to DMSO; higher = less toxic
Stated conditions: 72 h; 10000 nM
Outcome measure: cell viability

molecule="Cc1ccc(S(=O)(=O)NC(=O)NN2CC3CCCC3C2)cc1 (stereo not drawn) [gliclazide]" tested_system=HepG2 result=108%
molecule=Nc1nc(Cl)nc2c1ncn2[C@@H]1O[C@H](CO)[C@@H](O)[C@@H]1F tested_system=HepG2 result=39.3%
molecule=C=C1/C(=C\C=C2/CCC[C@]3(C)[C@@H]([C@H](C)CCCC(O)(C(F)(F)F)C(F)(F)F)CC[C@@H]23)C[C@@H](O)C[C@@H]1O tested_system=HepG2 result=92.9%

* * *

// values below are reported cell viability
System: Vero E6
Assay details: cell viability relative to DMSO; higher = less toxic
Stated conditions: 72 h; 100 nM
Counter-ions that a name gives are not always drawn.
Outcome measure: cell viability (%)

compound=COc1ccc2cc(-c3cc(-c4cc(Cl)cc(Cl)c4)nn3[C@@H](C)c3ccc(C(=O)NCCC(=O)O)cc3)ccc2c1 result_number=98.8
compound="CN1C2CCC1CC(OC(c1ccccc1)c1ccc(Cl)cc1)C2 (stereo not drawn)" result_number=94.5
compound=COc1cccc2cc(-c3nc([C@H]4CC[C@H](C(=O)O)CC4)n4ncnc(N)c34)[nH]c12 result_number=98.3
compound="C[C@@H]1C(=O)O[C@H]2C[C@@]34[C@H]5C[C@@H](C(C)(C)C)[C@]36[C@@H](OC(=O)[C@@H]6O)O[C@@]4(C(=O)O5)[C@]21O [Ginkgolide A]" result_number=98.9
compound=CCCCN1CCC(CNC(=O)c2c3n(c4ccccc24)CCCO3)CC1 result_number=95
compound="CC(C)Cc1ccc([C@@H](C)C(=O)NCCO)cc1 (racemic)" result_number=101
compound=CC(=O)C(=Cc1cc(O)c(O)c([N+](=O)[O-])c1)C(C)=O result_number=105
compound=Nc1nc2cc(-c3ccc4ncc(C(=O)N5CCOCC5)n4c3)ccc2o1 result_number=106
compound="c1cnc2c([O][Ga]([O]c3cccc4cccnc34)[O]c3cccc4cccnc34)cccc2c1 [gallium-triquinolin-8-olate]" result_number=106
compound=CCNC(=O)[C@@H]1CCCN1C(=O)[C@H](CCCNC(=N)N)NC(=O)[C@H](CC(C)C)NC(=O)[C@@H](C)NC(=O)[C@H](Cc1ccc(O)cc1)NC(=O)[C@H](CO)NC(=O)[C@H](Cc1c[nH]c2ccccc12)NC(=O)[C@H](Cc1cnc[nH]1)NC(=O)[C@@H]1CCC(=O)N1 result_number=104
compound=COc1cc2c(c(OC)c1OC)-c1ccc(OC)c(=O)cc1[C@@H](NC(C)=O)CC2 result_number=96.9
compound=CN(CC[C@@H](Oc1ccc(-c2ccccc2)cc1)c1ccc(F)cc1)CC(=O)O result_number=97.7
compound="CN[C@@H]1[C@H](O[C@H]2[C@H](O[C@H]3[C@H](O)[C@@H](O)[C@H](N=C(N)N)[C@@H](O)[C@@H]3N=C(N)N)O[C@@H](C)[C@]2(O)C=O)O[C@@H](CO)[C@H](O)[C@H]1O [STREPTOMYCIN SULFATE [5mM; 10% aq DMSO + 5mM ethanolamine]]" result_number=99.9
compound="O=[N+]([O-])O[C@H]1CO[C@H]2[C@@H]1OC[C@H]2O[N+](=O)[O-] [isosorbide-dinitrate]" result_number=92.5
compound=Cc1cccc(-c2n[nH]cc2-c2ccc(F)c(-c3cnn(CCO)c3)c2)n1 result_number=98
compound=CCc1c(-c2ccccc2)c(-c2ccccc2)nn1-c1ccccc1-c1cccc(OCC(=O)O)c1 result_number=103
compound=N[C@H](C(=O)O)c1cc(O)no1 result_number=99.1
compound=CC[C@@H](C)N(C)C(=O)c1cc2ccccc2c(-c2ccccc2Cl)n1 result_number=100
compound=O=C(Nc1ccc(Cl)cc1)Nc1ccc(Cl)c(Cl)c1 result_number=103
compound=NCCc1c[nH]c2ccc(O)cc12 result_number=103
compound=CCc1cc2c(s1)-n1c(C)nnc1CN=C2c1ccccc1Cl result_number=105
compound=OC[C@@H](O)[C@@H](O)[C@H](O)[C@@H](O)CO result_number=103
compound=Cc1cccc(Cc2c[nH]cn2)c1C result_number=90.5
compound=Cc1cccc(-c2[nH]c(C(C)(C)C)nc2-c2ccc3c(c2)OCO3)n1 result_number=107
compound=COc1ccc(S(=O)(=O)N(C(C)=O)c2ccccc2/C=C/c2cc[n+]([O-])cc2)cc1 result_number=99.8
compound="COc1cc(C(=O)NCc2ccc(OCCN(C)C)cc2)cc(OC)c1OC [trimethobenzamide]" result_number=93.2
compound=C=CC(=O)Nc1cccc(Nc2nc(Nc3ccc(Oc4ccnc(C(=O)NC)c4)cc3)ncc2F)c1 result_number=103
compound=O=[N+]([O-])c1cnc(Sc2nnc(O)n2-c2ccc3c(c2)OCCO3)s1 result_number=99.3
